Values from a protein production outcome set (Wang et al. 2014)

# Run description: label from the status in PepcDB records
Recorded endpoint: protein production

1) QLPSYRFNPNNHQSEQTLCVVCMCDFESRQLLRVLPCNHEFHAKCVDKWLKANRTCPICRAD
not failed
2) MEQIILDIIEFLKQFSYFGVVLALTFEFIPAEVVLPMVGYWVYEGDMNFWLAVLAGTLGGTTGPLTLYALGYYGGRPLLIKYGKYFFIKEEQIQKADDFFEKYGPVVAFVGRFVPGVRTLISVPCGMAKMNIWKFSIYTFVAMFPLTTLYVYFGMKLGPHWEKAADVVGQYMLPILGGVILIVASIFVYKYMKKRNKTESI
not failed
3) MSVTFSYLAETDYPVFTLGGSTADAARRLAASGCACAPVLDGERYLGMVHLSRLLEGRKGWPTVKEKLGEELLETVRSYRPGEQLFDNLISVAAAKCSVVPLADEDGRYEGVVSRKRILGFLAERI
not failed
4) MKTINVFHYDAFTNKPNMGNPAGIVLDADGLTEEEMQRIAEKVGFNETSFVLSSEVADIRMRYFTPGYEMDLCGHGTVGTIYALRERGLLEEKASLTIETKAGILPIQIGVNENGETFIKMRQTAPQFKDFAGSKEELAHSIGLEVNDLDVSLPIVYGSTGNWTVIVPVKNLDVCERMKPNNEVFPSVLKEIPNASIHPICLETYDEKVHMHGRHFSSAYAGTIEDPVTGTASGVMGAYYATYVEKDFDHEMELIVEQGQEIHKDGRVTVYVTKDVESEKLQIDIAGTAVYVKEFEVLI
failed
5) MISKAISAQCRHLHRAAVLVAVMSALAATGCSKKEAPQAPAPSAGTPQAGAPAAMPEGMSGQQQTAMGRAIFNKRCASCHGTDGNGAGSRSGPALDQAQFKYGRTPEAIRESIVKGRPNGMPAFGAAFQEIEIDTLVGYVMGLTKQ
failed
6) REHDFDDLKFEHFLASAAGAFPAFLEVAEKRIIGEGVLRAVKESMRWHRAENVHFGAFLLLVPLISSWDAGGMVDIAEAARNRLRRTDFRDSLSVLEAFRLSNARVVEAGELNLKDRKTEEEIAQKKINLYEWMKMAPEENLIARELVDGFKISIEGAKFLLSFGNSGKAVVELYYHLLSKFPDPLVIAKMGREYAEKITEWAEKARTEEERKELDEKLLKDGANPGTIADLTASSIFLALAEGWR
not failed
7) RPNVERDAQRRVNIRVTDEIVTALNERRIVMAFEPVVQAVSRAPAFHECLVRMKQDDGELLLAPDIVPVAEKLGLIRLVDHRVLELVVAELAAAPGVELSLNISPDTTMDADWWASIESLLGANPGVAERLIVEITETVAIQDLDDVRGFVNRLKNFGARIAIDDFGAGYTSFRNLRNLGVDIVKIDGAFVQNIARSADDRAFVQTLIDLARRLEIKTVAEWVQDEASAIMLRDWGCDYIQGRLIGLA
failed
8) MLLLSIYISIAIGISFICSVLEAVLLSISPSYIAQLNQQGHPAAEQLSKLKSDIDRPLASILTLNTIAHTIGAATAGAQAAVVFGSEALGIFSAVLTLAILVLSEIVPKTIGATYWRQLAPAAAVSLRWMVWALTPFVWFSEQITKRLARNHEAPKMRDELSAMAILARESGEFAEGESKILSNLLGIQDVPVTQVMTPRPVVFRVDATMTINEFLDKHKDTPFSRPLVYSEQKDNIIGFVHRLELFKMQQSGSGQKQLGAVMRPIQVVLNNTALPKVFDQMMTHRLQLALVVDEYGTVLGLVTLEDIFEHLVGEEIIDEADKSTDMQELAYQRWESWKEMHGVIESRDDDDEELEKQNVEPETQEPTKPDSKES
failed
9) MITVLILRCIMVKSTTRKSAKSDRRRYNRIARFYDLFETPMELMNFRKWRKMLFDLIKAEKGLVLEIGAGTGKNIPHYPSNVVALDISEKMLERAVRRAKESGKKVDFLLADAENLPFRSNSFDVVFTTFVFCSVDDPVRGLREAFRVLKKGGRAYFLEHMLPKSRFLHPLFNLLNPIFRAFGPEINRRTDENIQRAGFQIVKEYMLFGSVFRLIVAEKPLDSVDEASGYSLKRSESSDSSNFRRFIGQSLLPLRLTQLLR
failed
10) MNLPKVKMLQVSKCLIGLAVMMLQSCDVADNRRDMLCGNWESVEGKPDVLIYKEGEAYKVTVFRRSGLRRKLKPETYLLQEENGNLFMNTGFRIDVSYNEATDVLTFSPNGDYVRVKPQPGHPTEE
failed
11) MLPMLLWLVANLFLAPAAEGFHGMNKTNTWAVILSSSRYFFNLRHTTNALAMYHLCRKHGMDDDHILVFLSDSYACDPRKPNPATIYGAPAQAEQPNLYGCNIRVDYASYDVGVRRFLGVLQGRYDENTPPSRRLDTDENSNIIIYAAGHSAEKFFKFQDSEFMSSTDIADTLMMMWEQRRYRKLVFLVDTCRALSLCLEIKAPNVVCLASSEAHLDSYSHHLDPPSGFTVITRWTFEFLEVLKDSKCRPENGEVTLLQKSFYDFNYGPERLSLPQPLSEPAHFDAVNRPNAIREWKMDEFFCEQDRDKIPVELRYDLF
failed
12) MTAPGSMPLTVIGGFLGAGKTTLLNYLLKVQHSERVLVMVNDFGSINIDAELLDQGRHDRPGVVRLQNGCVCCSIGGDLMQAFLQVMSMPDRPDRIIVEASGVADPTRIAQIGRVSGGLSDEGVITLVDASAVRTLAADKYVGDIVRQQILSADIVLLNKLDLSSDAEIVETRAWLRDLAPRTRVVSCIHGEVDAVSVLGIGAGKVAPDAAGGPVDVPVPDLRRASTRHADTFHSSTLATAHRFDRRRIEYALDALPQTVLRGKGFVELEGEATPALLQLCGSRWTLDPVSTPAPPAGTHLVFIATGGRGVPRFDAPSHFEQALASRDAASADTSNLEHHHHHH
not failed
13) MVLVILDFVVEWRDRVMVRWWSLLLDQGIEWSVKVVKRLLDQGVEWFDMIRGCQSSPLLLLAIKMCTEATKSSQIIMMGVNLRSLKDGFIDKGNSRVHLMANMRKANSLDDDSKPDIHSRDRDPHNYTTS
failed
